- Tested on: ShSQSTM1 A549 cells
- assay.procedure: Cell viability / Crystal Violet Cytotoxicity Assay, dose-response IC50, shSQSTM1 A549 cells
- Format: cell-based, human
- assay.setup: ShSQSTM1 A549, dose-response curves (Cell Treatments)
readout.type: pIC50
Hey, just a heads up that pIC50 is the negative log base 10 of the concentration in molar.

                       compound               system  readout_type  reported_measurement
0  N.N.[Cl][Pt][Cl] [Cisplatin]  ShSQSTM1 A549 cells         pIC50                  4.32

The record that follows has no pIC50 shown yet.
Request: Reported pIC50 for `O=C1[O][Pt]2([NH][C@@H]3CCCC[C@H]3[NH]2)[O]C1=O` : what is it?
Response: 5.35
